# TGI listing for each entry below
- Tested on: SF-539 CNS
- experimentalDetails: NCI tumour cell line growth inhibition, 48 h
Report only the number, with the unit µM understood.

O=C(Oc1c(Cl)c(Cl)c(Cl)c(Cl)c1Cl)C1CCCN1C(=O)OCc1ccccc1 (stereo not given): 9.56
CC1(C)CC(C(=O)OCCCCCCCCCCC[P+](c2ccccc2)(c2ccccc2)c2ccccc2)C(C)(C)N1O (stereo not given): 1.28
CS(=O)(=O)Nc1cccc(-c2ccc3ncnc(Nc4cncc(Cl)c4)c3c2)c1: 5.82
CC(=O)OCCC/C(=C/c1cc2ccccc2c2ccccc12)[N+](=O)[O-]: 2.86
CCSc1nc(N)c(C#N)c(-c2ccc(OC)c(OC)c2)c1C#N: 40.3

Next:
q: Reported TGI for C#CCn1c2c(c3ccccc3c1=O)C(=O)c1ccccc1-2 : what is it?
a: 24.2

---

Reported GI50, MDA-MB-435.

Below are worked cases with known answers.
NC(N)=N/N=C/c1c(-c2cccs2)nc2n1CCS2: 16.7 µM
O=C1c2ccccc2-c2c1c1ccc([N+](=O)[O-])cc1c(=O)n2CCN1CCOCC1: > 100 µM
O=C1c2ccccc2-c2c1c1ccc3ccccc3c1n2-c1ccccc1: 97.9 µM
C=C(C)[C@@H]1CC[C@]2(COC(=O)c3ccccc3C(=O)O)CC[C@]3(C)[C@H](CC[C@@H]4[C@@]5(C)CC[C@H](OC(=O)c6ccccc6C(=O)O)C(C)(C)[C@@H]5CC[C@]43C)[C@@H]12: 34.6 µM

Kindly consider the entry below.
q: Report GI50 for O=C(Oc1c(Cl)c(Cl)c(Cl)c(Cl)c1Cl)C1CCCN1C(=O)OCc1ccccc1 (stereo not given) tested on MDA-MB-435.
a: 4.11 µM

---

In this section we review reported TGI values for a set of compounds.
- Tested on: ACHN renal
- experimentalDetails: NCI tumour cell line growth inhibition, 48 h

Look over these answered cases.
CN1CCC(n2cnc(-c3ccc(F)cc3)c2-c2ccnc(Nc3ccccc3)n2)CC1: > 25 µM
CCCCCCCCCCCCCCCCCCOC(COP(=O)(O)OCC1OC(n2cc(F)c(=O)[nH]c2=O)CC1O)COP(=O)(O)OCC1OC(n2ccc(N)nc2=O)C(O)C1O (stereo not drawn): > 100 µM
O=C(O)c1ccc2[nH]c(=O)oc2c1: > 100 µM
COc1ccc(-n2nc(C(=O)c3ccccc3)c3nn4c(=O)cc(-c5ccccc5)nc4nc32)cc1: > 100 µM

Consider the additional compound presented here.
q: Returns the measured TGI for the input compound. Input: CS(=O)(=O)Nc1cccc(-c2ccc3ncnc(Nc4cncc(Cl)c4)c3c2)c1
a: > 100 µM

---

- Tested on: LOX IMVI melanoma
- experimentalDetails: NCI tumour cell line growth inhibition, 48 h
experimentalReadout: TGI

Solved cases (3 shown):
Nc1n[nH]c2cc(F)c([C@@H]3Nc4c(F)cc5[nH]ncc5c4[C@H]4C5CCC(C5)[C@@H]34)cc12 (some centres undefined): 4.41 µM
CCOC1Oc2ccccc2-c2nc(N)ncc21 (centres undefined): > 100 µM
CC1(C)OC2C(O1)[C@H]1OC(C(Cl)(Cl)Cl)=N[C@H]1C(I)[C@H]2N1C(=O)c2ccccc2C1=O (some centres undefined): > 100 µM

Kindly review the next compound as well.
q: Lab note: need TGI for Cc1ccc(S(=O)(=O)Nc2cc(=O)[nH]c3c2CCC3)cc1 on LOX IMVI melanoma, anyone have it?
a: > 100 µM

---

TGI by entry:
- Tested on: TK-10 renal
- experimentalDetails: NCI tumour cell line growth inhibition, 48 h

For orientation, consider the following solved cases.
CC(=O)Nc1ccc(S(=O)(=O)N/N=C(\C)CN2C(=O)c3ccccc3C2=O)cc1: > 100 µM
N#CC1=C(N)Oc2c(ccc3cccnc23)C1c1ccccc1 (stereo unspecified): 86.8 µM
COC(=O)[C@H]1C2CC[C@@H]3C45C[C@@H](c6ccoc6)O[C@@H]4O[C@@H](O2)C31CCC5C (stereo partly specified): > 100 µM
CN(C)C(=S)/N=C(\N)N(C)C: > 100 µM
COc1ccc(N2C(=O)C3c4[nH]c5ccc(OC)cc5c4C4CCC(c5ccccc5)CC4C3C2=O)cc1 (stereo unspecified): > 57.7 µM

Let us move to another entry and its TGI.
q: Data request, read-out TGI, for COC(=O)C(Cc1ccccc1)NP(=O)(O)OCC1OC(n2ccc(N)nc2=O)C(O)C1O (stereo unspecified)
a: > 100 µM

---

# Lookup of reported TGI keyed by entry
- System: RXF 393 renal
- experimentalDetails: NCI tumour cell line growth inhibition, 48 h
State just the number; it will be interpreted in µM.

CCCCc1n(Cc2ccc3ccccc3n2)cc[n+]1Cc1ccc2ccccc2c1: 3.16
NC1=C(/C(N)=N/O)C(c2ccccc2)c2ccc3ccccc3c2O1 (stereo not drawn): 0.929
O=C(Cc1ccccc1)Nc1nc2ccc(Cl)cc2c2nc(-c3ccco3)nn12: 59.7
CN(CCCN1CCCC1)CCCN(C)C(=O)Cc1ccc(Cl)c(Cl)c1: 31.9
CC1=C(c2ccccc2)CON(c2ccccc2)C1: 86.2
COc1cc(NC(=O)c2cc3ccccc3cc2O)c(OC)cc1Cl: 8.01

q: Enter reported TGI observed with RXF 393 renal for Oc1ccc(Cl)cc1C1=Nn2c(COc3ccc4c(c3)CCCC4)nnc2SC1
a: 32.9

q: I'm curious: which TGI was measured for CCN1Cc2c(/C=C/c3ccccc3)nc3ccc(OC)cc3c2N(c2cccc(Cl)c2)C1 tested on RXF 393 renal?
a: 3.69

---

- Test system: ACHN renal
- experimentalDetails: NCI tumour cell line growth inhibition, 48 h
experimentalReadout: GI50

Example entries begin here.
NCCNc1nc2ccc(F)cc2c2c(=O)c3cc(F)ccc3sc12: 1500 nM
Nc1ncc(-c2ccc3ncnc(N4CCc5cc(F)c(Cl)cc54)c3c2)cc1C(F)(F)F: 784 nM

q: Requested field: GI50. Item: O=C(Oc1c(Cl)c(Cl)c(Cl)c(Cl)c1Cl)C1CCCN1C(=O)OCc1ccccc1 (centres undefined)
a: 2620 nM

q: Need GI50, item COc1ccc(C(=O)c2cc(C)c(OC)c(C)c2)c(OC)c1OC(=O)C(Cl)Cl
a: 55.4 nM

---

- Tested on: NCI/ADR-RES ovarian
- experimentalDetails: NCI tumour cell line growth inhibition, 48 h
experimentalReadout: GI50

Solved entries:
COc1ncc(-c2ccc3ncnc(Nc4cccc(Cl)c4)c3c2)cc1NS(C)(=O)=O: 2.38 µM
O=C(/C=C/c1cc(O)ccc1O)c1ccc(Cl)cc1: 19.6 µM
COc1ccc(OC)c(-c2nc3sc(C)cn3c2/C=C2\C(=O)N(C)c3ccccc32)c1: 15.7 µM

q: // returns reported GI50 for input Cc1ccc(Nn2c(SCC(=O)Nc3nc(-c4ccccc4)cs3)nc(C)c2C)cc1
a: 3.04 µM

q: Which GI50 is reported for this molecule? O=C1c2ccccc2-c2c1c1ccc3ccccc3c1n2-c1ccccc1
a: 20.7 µM

---

- Tested on: SR leukemia
- experimentalDetails: NCI tumour cell line growth inhibition, 48 h
Entries and their GI50

Would you please look over these solved cases?
COc1ccc(-c2cncn2-c2ccc(-c3nc4cc(OC)c(OC)c(OC)c4s3)cc2)cc1N: 3.43 µM
CCN1Cc2c(/C=C/c3ccccc3)nc3ccc(OC)cc3c2N(c2cccc(Cl)c2)C1: 1.71 µM
N#Cc1cc2c(=S)[nH]c(=S)[nH]c2nc1SCc1ccccc1: 41.3 µM
Clc1ccc2c(NCCNc3nc(N4CCCCC4)nc4ccccc34)ccnc2c1: 1.23 µM
CS(=O)(=O)Nc1cccc(-c2ccc3ncnc(Nc4cncc(Cl)c4)c3c2)c1: 1.67 µM
CCC1C[N+]2=C(c3cc(OC)c(OC)cc3CC2)c2c1cc1n2CCc2cc(OC)c(OC)cc2-1 (stereo not drawn): 3.1 µM
NC1=CC(=O)C(=O)c2ccccc21: 23.3 µM

Let us examine a further case.
q: Any idea what GI50 came out for CCSc1nc(N)c(C#N)c(-c2ccc(OC)c(OC)c2)c1C#N on SR leukemia?
a: 11.8 µM

---

- Test system: LOX IMVI melanoma
- experimentalDetails: NCI tumour cell line growth inhibition, 48 h
Reported GI50 values for the following compounds.

Past entries and their recorded results:
CCC1C[N+]2=C(c3cc(OC)c(OC)cc3CC2)c2c1cc1n2CCc2cc(OC)c(OC)cc2-1 (centres undefined): 3720 nM
COc1ccc(-n2nc(C(=O)NCC(=O)Nc3nc4cc(OC)ccc4s3)c3ccccc3c2=O)cc1: 413 nM
O=CCC(O)C(O)C(O)CO (centres undefined): > 100000 nM

Turning now to a further compound:
q: Quick check: GI50 of CCN1Cc2c(/C=C/c3ccccc3)nc3ccc(OC)cc3c2N(c2cccc(Cl)c2)C1 ?
a: 1700 nM

---

- System: NCI-H460 lung
- experimentalDetails: NCI tumour cell line growth inhibition, 48 h
Measured TGI accompanies every entry in the list below.

CNC(=O)OCC1=C(COC(=O)NC)CN(c2ccc(OC)cc2)C1: > 100 µM

Here's the next entry for you.
q: Recorded TGI of COc1ccc(-c2n[nH]c3nc4ccccc4n3c2=O)cc1 , please.
a: > 100 µM
